# experimental-system: PCSK9 (Homo sapiens, UniProt Q8NBP7)
# Construct: biotin (biotinylated); purchased
# Sequence (Q8NBP7 153-692): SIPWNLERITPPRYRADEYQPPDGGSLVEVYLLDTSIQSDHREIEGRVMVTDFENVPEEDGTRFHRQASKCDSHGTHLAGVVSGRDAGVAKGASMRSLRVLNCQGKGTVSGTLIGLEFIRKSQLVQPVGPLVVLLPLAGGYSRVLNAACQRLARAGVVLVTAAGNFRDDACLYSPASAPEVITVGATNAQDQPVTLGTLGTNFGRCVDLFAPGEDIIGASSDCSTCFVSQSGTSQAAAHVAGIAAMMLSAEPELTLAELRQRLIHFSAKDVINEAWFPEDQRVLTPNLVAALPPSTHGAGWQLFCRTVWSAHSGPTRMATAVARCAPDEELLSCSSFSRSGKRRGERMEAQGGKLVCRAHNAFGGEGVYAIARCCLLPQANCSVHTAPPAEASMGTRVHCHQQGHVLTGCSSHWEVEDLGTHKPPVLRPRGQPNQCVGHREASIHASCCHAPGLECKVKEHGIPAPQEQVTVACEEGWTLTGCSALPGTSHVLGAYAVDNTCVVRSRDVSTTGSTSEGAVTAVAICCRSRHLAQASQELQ
# test-details: PCSK9 Alexa FRET Standard TR-FRET assay
# Format: binding
# condition-parameters: Ki calculated from IC50 and KD of AF cyclic peptide Reagent A; 0.5 nM PCSK9, 20 nM AF cyclic peptide; read-out: Alexa FRET Stdt TR-FRET
endpoint-label: Ki

Look up and state reported Ki for COc1ccc(C[C@@H]2NC(=O)[C@H]([C@@H](C)O)NC(=O)[C@@H]3[C@@H]4CCN3C(=O)[C@@H]3Cc5cn(c6ccc(F)cc56)CCCCCCN(Cc5ccc(cc5)CCNC(=O)[C@]5(C)CCCN5C2=O)C(=O)CCC(=O)N[C@@H](CNC(=O)COCCOCC[N+](C)(C)CCOCCNC(=O)COCCOCCNC(=O)COCCOCCNC(=O)CC[C@H](NC(=O)CC[C@H](NC(=O)CCCCCCCCCCCCCCC(=O)O)C(=O)O)C(=O)O)C(=O)N[C@H](CNC(=O)CCOCCOCC[N+](C)(C)C)C(=O)N[C@@H](Cc2cccc(c2)CNC(=O)CO4)C(=O)N3)cc1
< 1.26 nM

Consider the additional molecule presented here.
Respond only with Ki recorded for COC(=O)CCCCCCCCCCCCCCCCC(=O)N[C@@H](CCC(=O)NCCOCCOCC(=O)NCCOCCOCC(=O)NCC[N+](C)(C)CCCCCC(=O)NC[C@H]1NC(=O)[C@H](C)NC(=O)CCC(=O)N2CCCCCCn3cc(c4cc(F)ccc43)C[C@@H]3NC(=O)[C@H](Cc4cccc(c4)CNC(=O)CO[C@H]4CCN(C3=O)[C@@H]4C(=O)N[C@@H]([C@@H](C)O)C(=O)N[C@@H](Cc3ccc(OC)cc3)C(=O)N3CCC[C@@]3(C)C(=O)NCCc3ccc(cc3)C2)NC1=O)C(=O)OC
< 1.26 nM

* * *

# experimental-system: PCSK9 (Homo sapiens)
# Construct: biotin (biotinylated); purchased
# test-details: PCSK9 Alexa FRET Ultra TR-FRET assay
# Format: binding
# condition-parameters: Ki Ultra, calculated from IC50 and KD of AF cyclic peptide; 0.5 nM PCSK9, 960 nM AF cyclic peptide; read-out: Alexa FRET Ultra TR-FRET
List of Ki values.
The reply should be a number in pM, with the unit left off.

// known answers, use as guide
Provide measured Ki value, entry: COc1ccc(C[C@@H]2NC(=O)[C@H]([C@@H](C)O)NC(=O)[C@@H]3[C@@H]4CCN3C(=O)[C@@H]3Cc5cn(c6ccc(F)cc56)CCCCCCN(Cc5ccc(cc5)CCNC(=O)[C@]5(C)CCCN5C2=O)C(=O)CCC(=O)N[C@@H](CNC(=O)CCOCCOCC[N+](C)(C)CCNC(=O)COCCOCCNC(=O)COCCOCCNC(=O)CC[C@H](NC(=O)CC[C@H](NC(=O)CCCCCCCCCCCCCCCCC(=O)O)C(=O)O)C(=O)O)C(=O)N[C@H](C)C(=O)N[C@@H](Cc2cccc(c2)CNC(=O)CO4)C(=O)N3)cc1 [Ex-58]
79

State its Ki for this compound: COc1ccc(C[C@@H]2NC(=O)[C@H]([C@@H](C)O)NC(=O)[C@@H]3[C@@H]4CCN3C(=O)[C@@H]3Cc5cn(c6ccc(F)cc56)CCCCCCN(Cc5ccc(cc5)CCNC(=O)[C@]5(C)CCCN5C2=O)C(=O)CCC(=O)N[C@@H](CNC(=O)COCCOCC[N+](C)(C)CCOCCNC(=O)COCCOCCNC(=O)COCCOCCNC(=O)CC[C@H](NC(=O)CC[C@H](NC(=O)CCCCCCCCCCCCCCC(=O)O)C(=O)O)C(=O)O)C(=O)N[C@H](CNC(=O)CCOCCOCC[N+](C)(C)C)C(=O)N[C@@H](Cc2cccc(c2)CNC(=O)CO4)C(=O)N3)cc1 [Ex-66]
27

Give Ki for the following compound: COc1ccc(C[C@@H]2NC(=O)[C@H]([C@@H](C)O)NC(=O)[C@@H]3[C@@H]4CCN3C(=O)[C@@H]3Cc5cn(c6ccc(F)cc56)CCCCCCN(Cc5ccc(cc5)CCNC(=O)[C@]5(C)CCCN5C2=O)C(=O)CCC(=O)N[C@@H](CNC(=O)COCCOCCNC(=O)CC[C@H](NC(=O)CCOCCOCC[N+](C)(C)CCNC(=O)COCCOCCNC(=O)COCCOCCNC(=O)CC[C@H](NC(=O)CCCCCCCCCCCCCCCCC(=O)O)C(=O)O)C(=O)O)C(=O)N[C@H](C)C(=O)N[C@@H](Cc2cccc(c2)CNC(=O)CO4)C(=O)N3)cc1 [Ex-61]
131

More entries:
Supply recorded Ki for COc1ccc(C[C@@H]2NC(=O)[C@H]([C@@H](C)O)NC(=O)[C@@H]3[C@@H]4CCN3C(=O)[C@@H]3Cc5cn(c6ccc(F)cc56)CCCCCCN(Cc5ccc(cc5)CCNC(=O)[C@]5(C)CCCN5C2=O)C(=O)CCC(=O)N[C@@H](CNC(=O)COCCOCC[N+](C)(C)CCNC(=O)COCCOCCNC(=O)COCCOCCNC(=O)CC[C@H](NC(=O)CCCCCCCCCCCCCCCCC(=O)O)C(=O)O)C(=O)N[C@H](CNC(=O)CCOCCOCC[N+](C)(C)C)C(=O)N[C@@H](Cc2cccc(c2)CNC(=O)CO4)C(=O)N3)cc1 [Ex-65] here.
24

* * *

# experimental-system: PCSK9 (Homo sapiens, UniProt Q8NBP7)
# Construct: biotin (biotinylated); purchased
# test-details: PCSK9 Alexa FRET Ultra TR-FRET assay
# Assay type: binding
# condition-parameters: Ki Ultra, calculated from IC50 and KD of AF cyclic peptide; 0.5 nM PCSK9, 960 nM AF cyclic peptide; read-out: Alexa FRET Ultra TR-FRET
endpoint-label: pKi
# pKi = -log10(concentration in molar units)

Example results:
State its pKi: COc1ccc(C[C@@H]2NC(=O)[C@H]([C@@H](C)O)NC(=O)[C@@H]3[C@@H]4CCN3C(=O)[C@@H]3Cc5cn(c6ccc(F)cc56)CCCCCCN(Cc5ccc(cc5)CCNC(=O)[C@]5(C)CCCN5C2=O)C(=O)CCC(=O)N[C@@H](C)C(=O)N[C@H](CNC(=O)CCOCCOCC[N+](C)(C)CCNC(=O)COCCOCCNC(=O)CC[C@H](NC(=O)CC[C@H](NC(=O)CC[C@H](NC(=O)CCCCCCCCCCCCCCCCC(=O)O)C(=O)O)C(=O)O)C(=O)O)C(=O)N[C@@H](Cc2cccc(c2)CNC(=O)CO4)C(=O)N3)cc1 [Ex-48]
11.05

For COc1ccc(C[C@@H]2NC(=O)[C@H]([C@@H](C)O)NC(=O)[C@@H]3[C@@H]4CCN3C(=O)[C@@H]3Cc5cn(c6ccc(F)cc56)CCCCCCN(Cc5ccc(cc5)CCNC(=O)[C@]5(C)CCCN5C2=O)C(=O)CCC(=O)N[C@@H](C)C(=O)N[C@H](CNC(=O)CCOCCOCC[N+](C)(C)CCNC(=O)COCCOCCNC(=O)COCCOCCNC(=O)CC[C@H](NC(=O)CCCCCCCCCCCCCCCCC(=O)O)C(=O)O)C(=O)N[C@@H](Cc2cccc(c2)CNC(=O)CO4)C(=O)N3)cc1 [Ex-22] , write its pKi.
11.40

Provide only the value of recorded pKi for CCCCCCC(=O)NCCCCCCCC(=O)N[C@@H](CCC(=O)NCCOCCOCC(=O)NCCOCCOCC(=O)NCC[N+](C)(C)CCCCCC(=O)NC[C@H]1NC(=O)[C@H](C)NC(=O)CCC(=O)N2CCCCCCn3cc(c4cc(F)ccc43)C[C@@H]3NC(=O)[C@H](Cc4cccc(c4)CNC(=O)CO[C@H]4CCN(C3=O)[C@@H]4C(=O)N[C@@H]([C@@H](C)O)C(=O)N[C@@H](Cc3ccc(OC)cc3)C(=O)N3CCC[C@@]3(C)C(=O)NCCc3ccc(cc3)C2)NC1=O)C(=O)O [Ex-19]
12.00

Provide pKi value for the following compound: COc1ccc(C[C@@H]2NC(=O)[C@H]([C@@H](C)O)NC(=O)[C@@H]3[C@@H]4CCN3C(=O)[C@@H]3Cc5cn(c6ccc(F)cc56)CCCCCCN(Cc5ccc(cc5)CCNC(=O)[C@]5(C)CCCN5C2=O)C(=O)CCC(=O)N[C@@H](C)C(=O)N[C@H](CNC(=O)CCOCCOCC[N+](C)(C)CCNC(=O)CC[C@H](NC(=O)COCCOCCNC(=O)CC[C@H](NC(=O)CCCCCCCCCCCCCCCCC(=O)O)C(=O)O)C(=O)O)C(=O)N[C@@H](Cc2cccc(c2)CNC(=O)CO4)C(=O)N3)cc1 [Ex-54]
10.85

# input for lookup
Please look at this compound and report its pKi: COc1ccc(C[C@@H]2NC(=O)[C@H]([C@@H](C)O)NC(=O)[C@@H]3[C@@H]4CCN3C(=O)[C@@H]3Cc5cn(c6ccc(F)cc56)CCCCCCN(Cc5ccc(cc5)CCNC(=O)[C@]5(C)CCCN5C2=O)C(=O)CCC(=O)N[C@@H](C)C(=O)N[C@H](CNC(=O)COCCOCC[N+](C)(C)CCNC(=O)COCCOCCNC(=O)COCCOCCNC(=O)CC[C@H](NC(=O)CCCCCCCCCCCCCCCCC(=O)O)C(=O)O)C(=O)N[C@@H](Cc2cccc(c2)CNC(=O)CO4)C(=O)N3)cc1 [Ex-40]
11.40

The origin of these recorded values is patent US12178842B2.
